Tested on: HEK293T (UBE3A T485A transfected, BAR Wnt reporter)
Assay: Renilla luciferase signal (cell health) relative to plate median (fold (linear ratio)); higher = higher Renilla signal
Assay conditions: concentration: 0.01 uM; 24 h
Whole data set: some 1,100 compounds, median “Renilla luciferase signal (cell health) relative to plate median” near 0.97, cut for the highest 2% near 1.6. Only a selection was taken, and the highest values are over-represented in it overall.
// label = T if Renilla luciferase signal is not less than 0.9, otherwise F

Enquiry: Hi team, for CCSC(=O)N(CC)C1CCCCC1 [Cycloate] , is the recorded Renilla luciferase signal at or above 0.9?
Return: F

Enquiry: Hi team, for `O=C(O)c1cc(Oc2ccc(C(F)(F)F)cc2Cl)ccc1[N+](=O)[O-]` , is the recorded Renilla luciferase signal at or above 0.9?
Return: T
